- assay details: self-splicing fitness, log relative to wild type (ln ratio); higher = more splicing; Tetrahymena group I intron in knt gene, E. coli kanamycin selection, DiMSum; sequences stand for … in CUCUCU…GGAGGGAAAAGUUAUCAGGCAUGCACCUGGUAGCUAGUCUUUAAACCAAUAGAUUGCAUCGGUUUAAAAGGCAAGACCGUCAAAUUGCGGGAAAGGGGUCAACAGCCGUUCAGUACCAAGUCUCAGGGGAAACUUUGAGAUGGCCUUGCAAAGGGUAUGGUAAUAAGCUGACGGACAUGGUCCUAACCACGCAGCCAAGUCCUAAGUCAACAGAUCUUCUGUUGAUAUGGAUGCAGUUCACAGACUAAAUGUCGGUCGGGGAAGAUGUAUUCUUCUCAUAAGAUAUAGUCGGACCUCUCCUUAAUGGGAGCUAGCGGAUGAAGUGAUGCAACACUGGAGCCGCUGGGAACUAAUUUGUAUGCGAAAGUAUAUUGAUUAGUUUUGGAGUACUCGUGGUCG;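 further: selection with 25 µg/mL kanamycin versus none on LB agar overnight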
- conditions: 37 °C
Returns one of condition met or condition not met; condition met when self-splicing fitness (ln) is >= -1.

Study these solved cases before continuing.
[
  {
    "macromolecule sequence": "AUUUAGCAAUAUUACGAAGA",
    "group label": "condition not met"
  },
  {
    "macromolecule sequence": "AGAUAGCAAUAUUACGGAGU",
    "group label": "condition not met"
  },
  {
    "macromolecule sequence": "UGAAAGCAAUAUUACGACUU",
    "group label": "condition met"
  },
  {
    "macromolecule sequence": "AACUAGCAAUAUUACGGCCA",
    "group label": "condition met"
  },
  {
    "macromolecule sequence": "GCUAAGCAAUAUUACGAGGG",
    "group label": "condition not met"
  },
  {
    "macromolecule sequence": "GCAUAGCAAUAUUACGAUCA",
    "group label": "condition met"
  }
]

// query Form field: self-splicing fitness (ln) at least -1? Entry: "UCUUAGCAAUAUUACGAUGU"
// result condition met

// query Please answer likewise for "GAAAAGCAAUAUUACGCACG"
// result condition met

// query Please answer likewise for "AGGUAGCAAUAUUACGGGUG"
// result condition not met

// query Please answer likewise for "GAUGAGCAAUAUUACGUCCU"
// result condition not met

// query Please answer likewise for "GUCAAGCAAUAUUACGUUGU"
// result condition not met

// query Please answer likewise for "UUCAAGCAAUAUUACGAAGU"
// result condition met

// query Please answer likewise for "GAUCAGCAAUAUUACGGGGA"
// result condition met

// query Please answer likewise for "GUCAAGCAAUAUUACGUACA"
// result condition not met

* * *

- assay details: self-splicing fitness, log relative to wild type (ln ratio); higher = more splicing; Tetrahymena group I intron in knt gene, E. coli kanamycin selection, DiMSum; sequences stand for … in CUCUCU…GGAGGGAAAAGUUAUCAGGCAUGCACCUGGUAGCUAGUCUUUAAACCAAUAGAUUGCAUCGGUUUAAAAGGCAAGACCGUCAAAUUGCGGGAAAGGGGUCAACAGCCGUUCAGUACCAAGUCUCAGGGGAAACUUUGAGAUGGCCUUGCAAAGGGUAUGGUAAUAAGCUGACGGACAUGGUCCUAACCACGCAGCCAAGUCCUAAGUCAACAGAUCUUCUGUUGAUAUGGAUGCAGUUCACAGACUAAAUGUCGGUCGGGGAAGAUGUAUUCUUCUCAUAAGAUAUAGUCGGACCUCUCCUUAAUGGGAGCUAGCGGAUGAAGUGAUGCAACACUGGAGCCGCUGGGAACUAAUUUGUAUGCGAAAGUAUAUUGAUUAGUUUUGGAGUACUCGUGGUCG
- conditions: 30 °C
Returns one of class 1 or class 0; class 1 when self-splicing fitness (ln) is >= -2.

Study these solved cases before continuing.
[
  {
    "macromolecule sequence": "UUGCAGCAAUAUUACGGUGG",
    "group label": "class 1"
  },
  {
    "macromolecule sequence": "CAACAGCAAUAUUACGAUGG",
    "group label": "class 1"
  }
]

// query Form field: self-splicing fitness (ln) at least -2? Entry: "GUGGAGCAAUAUUACGAUUC"
// result class 1
